Entry source: patent US20140287029A1

The following binders are shown together with reported T2 Binding (mean fluorescence intensity) values.
Molecular target: T1, HLA-A2 molecules on T2 cells (human)
T1 construct: whole, on cells; MHC class I molecule on the surface of T2 cells
Experiment: T2 cell-binding assay, flow cytometry of HLA-A2 on T2 cells, peptide 25 µg/mL
Number first, unit second: that is the form wanted.

// solved cases for T2 Binding (mean fluorescence intensity) follow
binder | T2 Binding (mean fluorescence intensity)
GLFDEYLEMV (Synthetic peptide, purity >95%; positions counted on the NGEP long form (L); also called NGEP-P703) [NGEP peptide P703 (L)] | 565 MFI
GLGGPPLPTL (Synthetic peptide, purity >95%; positions counted on the NGEP short form (S)) [NGEP peptide P10 (S)] | 212 MFI

We next turn to a different binder, shown below.
Prompt: Please give the documented T2 Binding (mean fluorescence intensity) of FLDNIRAAGL (Synthetic peptide, purity >95%; also called P143 (5)) [NGEP peptide P143]
Response: 203 MFI
